Target chain: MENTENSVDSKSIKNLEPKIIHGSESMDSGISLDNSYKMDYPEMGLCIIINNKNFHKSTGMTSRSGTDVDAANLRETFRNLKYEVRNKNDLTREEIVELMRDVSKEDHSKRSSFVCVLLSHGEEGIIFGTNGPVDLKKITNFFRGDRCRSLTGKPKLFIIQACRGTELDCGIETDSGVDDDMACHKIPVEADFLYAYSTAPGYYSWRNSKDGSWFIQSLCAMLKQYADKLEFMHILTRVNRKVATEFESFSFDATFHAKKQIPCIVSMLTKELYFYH
MEASURED ATTRIBUTE: Ki (µM)
# output: bare number, implied unit µM

Which Ki value belongs to O=C1Nc2ccc(S(=O)(=O)N3CCC[C@@H]3CNc3ccccc3)cc2C1=O ?
12

----------
TARGET ENTITY: Caspase-4 (Homo sapiens)
Sequence (P49662 81-270 limits assumed): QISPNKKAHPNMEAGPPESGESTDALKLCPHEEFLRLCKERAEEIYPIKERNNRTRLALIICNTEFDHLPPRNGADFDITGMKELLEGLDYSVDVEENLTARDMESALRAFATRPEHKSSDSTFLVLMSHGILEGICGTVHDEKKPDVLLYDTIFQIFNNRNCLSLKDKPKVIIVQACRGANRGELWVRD
Sequence (P49662 290-377 limits assumed): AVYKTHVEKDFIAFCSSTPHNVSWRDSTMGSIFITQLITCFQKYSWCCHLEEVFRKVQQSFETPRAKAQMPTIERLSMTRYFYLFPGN
MEASURED ATTRIBUTE: Ki

Which Ki value belongs to O=C1Nc2ccc(S(=O)(=O)N3CCC[C@@H]3CNc3ccccc3)cc2C1=O ?
> 50 µM

----------
Target chain: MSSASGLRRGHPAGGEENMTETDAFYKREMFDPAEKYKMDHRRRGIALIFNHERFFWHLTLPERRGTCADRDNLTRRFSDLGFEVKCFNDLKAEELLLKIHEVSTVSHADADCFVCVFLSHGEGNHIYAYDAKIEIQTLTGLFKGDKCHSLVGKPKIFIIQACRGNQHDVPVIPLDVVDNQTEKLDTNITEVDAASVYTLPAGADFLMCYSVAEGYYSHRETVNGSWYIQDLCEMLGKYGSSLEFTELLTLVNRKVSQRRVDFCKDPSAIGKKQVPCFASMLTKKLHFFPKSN
MEASURED ATTRIBUTE: Ki (µM)
# output: bare number, implied unit µM

Which Ki value belongs to O=C1Nc2ccc(S(=O)(=O)N3CCC[C@@H]3CNc3ccccc3)cc2C1=O ?
57
